Just for reference, ChEMBL document CHEMBL5335794 is where these values come from.

Target: Beta-secretase 1 (Homo sapiens, UniProt P56817)
Sequence (P56817 whole entry): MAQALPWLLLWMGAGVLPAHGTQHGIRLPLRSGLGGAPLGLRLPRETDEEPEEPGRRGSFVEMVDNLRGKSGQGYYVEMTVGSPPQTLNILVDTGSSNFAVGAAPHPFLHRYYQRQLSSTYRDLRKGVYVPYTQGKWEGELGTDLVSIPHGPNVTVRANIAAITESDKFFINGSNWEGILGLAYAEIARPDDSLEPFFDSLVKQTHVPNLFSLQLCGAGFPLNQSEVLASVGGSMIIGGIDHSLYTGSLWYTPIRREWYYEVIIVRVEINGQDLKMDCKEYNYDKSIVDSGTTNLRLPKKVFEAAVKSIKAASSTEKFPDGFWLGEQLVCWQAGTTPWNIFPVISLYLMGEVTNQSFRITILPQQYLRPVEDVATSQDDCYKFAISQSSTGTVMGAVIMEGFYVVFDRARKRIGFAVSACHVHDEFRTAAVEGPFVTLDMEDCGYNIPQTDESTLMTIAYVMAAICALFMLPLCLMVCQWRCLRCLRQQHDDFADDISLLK
Conditions: dose 50.0 µM, time 60.0 min
Recorded inhibition, one value per entry.
Quick reminder: number only, in %, skip the unit.

Field inhibition (Beta-secretase 1 (Homo sapiens, UniProt P56817)), entry Cc1ccc(CNC(=O)C(CCO)N(C)CCC=C2c3ccccc3-c3ccccc32)cc1 (stereo unspecified) : 55

Field inhibition (Beta-secretase 1 (Homo sapiens, UniProt P56817)), entry CC(O)CC(C(=O)NCc1ccccc1Cl)N(C)CC/C=C/c1ccccc1-c1ccccc1 (racemic; form 2) : 57

Field inhibition (Beta-secretase 1 (Homo sapiens, UniProt P56817)), entry CN(CCC=C1c2ccccc2-c2ccccc21)C(CCO)C(=O)NCc1ccc(F)cc1 (stereo unspecified) : 66

Field inhibition (Beta-secretase 1 (Homo sapiens, UniProt P56817)), entry CN(CCOCCN1c2ccccc2Sc2ccccc21)C(CCO)C(=O)NCc1ccccc1 (stereo unspecified) : 48

Field inhibition (Beta-secretase 1 (Homo sapiens, UniProt P56817)), entry CN(CCC=C1c2ccccc2C=Cc2ccccc21)C(CO)C(=O)NCc1ccccc1Cl (stereo unspecified) : 52

----------
Biological target: GABA transporter 2 (Mus musculus, UniProt P31651)
Sequence (P31651 whole entry): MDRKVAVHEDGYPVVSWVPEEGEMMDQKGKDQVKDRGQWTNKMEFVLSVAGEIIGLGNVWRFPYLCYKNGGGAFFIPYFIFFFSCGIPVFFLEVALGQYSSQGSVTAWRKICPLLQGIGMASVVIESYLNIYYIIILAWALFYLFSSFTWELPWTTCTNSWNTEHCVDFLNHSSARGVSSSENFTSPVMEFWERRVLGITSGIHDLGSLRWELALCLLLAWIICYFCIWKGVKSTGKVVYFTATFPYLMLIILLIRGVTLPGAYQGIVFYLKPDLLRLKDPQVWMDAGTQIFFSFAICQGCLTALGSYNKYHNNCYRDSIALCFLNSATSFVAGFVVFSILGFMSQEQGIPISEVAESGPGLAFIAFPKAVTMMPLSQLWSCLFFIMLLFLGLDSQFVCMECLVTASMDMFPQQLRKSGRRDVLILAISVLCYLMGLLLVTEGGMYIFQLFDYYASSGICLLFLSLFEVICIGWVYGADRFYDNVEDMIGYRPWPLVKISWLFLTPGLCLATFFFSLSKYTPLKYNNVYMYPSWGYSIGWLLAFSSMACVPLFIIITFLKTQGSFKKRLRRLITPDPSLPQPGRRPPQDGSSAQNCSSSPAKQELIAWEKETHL
Test: Inhibition of mouse GAT2 transfected in HEK293 cells assessed as reduction in [3H]-GABA uptake
Assay type: cell-based
Parameter: pIC50
In simple prose, pIC50 is minus the logarithm base ten of a concentration in moles per litre.

Field pIC50 (GABA transporter 2 (Mus musculus, UniProt P31651)), entry O=C(O)C1=CN(CC/C=C/c2ccccc2-c2ccccc2)CCC1 : 3.87

----------
Biological target: Sodium- and chloride-dependent GABA transporter 1 (Mus musculus) (UniProt P31648)
Assay: Inhibition of NO 711 marker binding to mouse GAT1 assessed as residual activity at 100 uM by LC-ESI-MS/MS based competitive MS binding assay relative to control
Parameter: Activity (%)
Quick reminder: number only, in %, skip the unit.

Sample answers from the record:
Lookup result for CN(CCOCCN1c2ccccc2Sc2ccccc21)C(CCO)C(=O)NCc1ccccc1 (stereo unspecified) ; measured Activity: 93

Lookup result for O=C(NC1CCN(C(c2ccccc2)c2ccccc2)CC1)C1CC2c3ccccc3NC2CN1 (stereo unspecified) ; measured Activity: 73

Lookup result for CC(O)CC(C(=O)NCc1ccccc1Cl)N(C)CC/C=C/c1ccccc1-c1ccccc1 (racemic; form 1) ; measured Activity: 75

Lookup result for CN(CCOCCN1c2ccccc2Sc2ccccc21)C(CCO)C(=O)NCc1ccc(F)cc1 (stereo unspecified) ; measured Activity: 84

Lookup result for CN(CC/C=C/c1ccccc1-c1ccc(Cl)cc1Cl)C(CCO)C(=O)NCc1ccccc1 (stereo unspecified) ; measured Activity: 49

Lookup result for CC(=O)NCCC(C(=O)NCc1ccc(C)cc1)N(C)CCOCCN1c2ccccc2Sc2ccccc21 (stereo unspecified) ; measured Activity: 89

Lookup result for CN(CCOCCN1c2ccccc2Sc2ccccc21)C(CCO)C(=O)NCc1ccccc1Cl (stereo unspecified) ; measured Activity: 100

Lookup result for CC(O)CC(C(=O)NCc1ccc(F)cc1)N(C)CC/C=C/c1ccccc1-c1ccccc1 (racemic; form 2) ; measured Activity: 87

Continuing:
Lookup result for CC(=O)NCCC(C(=O)NCc1ccccc1Cl)N(C)CCOCCN1c2ccccc2Sc2ccccc21 (stereo unspecified) ; measured Activity: 86

Lookup result for CC(=O)NCCC(C(=O)NCc1ccc(F)cc1)N(C)CCOCCN1c2ccccc2Sc2ccccc21 (stereo unspecified) ; measured Activity: 85

Lookup result for Cc1ccc(CNC(=O)C(CCO)N(C)CCOCCN2c3ccccc3Sc3ccccc32)cc1 (stereo unspecified) ; measured Activity: 85

Lookup result for CC(O)CC(C(=O)NCc1ccccc1Cl)N(C)CC/C=C/c1ccccc1-c1ccccc1 (racemic; form 2) ; measured Activity: 76

Lookup result for CN(CCOCCN1c2ccccc2Sc2ccccc21)C(CCO)C(=O)NCc1ccc(Cl)cc1 (stereo unspecified) ; measured Activity: 96

Lookup result for CN(CCOCCn1c2ccccc2c2ccccc21)C(CCN)C(=O)NCc1ccccc1 (stereo unspecified) ; measured Activity: 71

Lookup result for CN(CC/C=C/c1ccccc1-c1ccccc1)C(CO)C(=O)NCc1ccc(F)cc1 (stereo unspecified) ; measured Activity: 94

Lookup result for CN(CCOCCn1c2ccccc2c2ccccc21)C(CCO)C(=O)NCc1ccccc1 (stereo unspecified) ; measured Activity: 92

----------
Recorded IC50, one value per entry.
Biological target: GABA transporter 4 (Mus musculus)
Sequence (P31650 whole entry): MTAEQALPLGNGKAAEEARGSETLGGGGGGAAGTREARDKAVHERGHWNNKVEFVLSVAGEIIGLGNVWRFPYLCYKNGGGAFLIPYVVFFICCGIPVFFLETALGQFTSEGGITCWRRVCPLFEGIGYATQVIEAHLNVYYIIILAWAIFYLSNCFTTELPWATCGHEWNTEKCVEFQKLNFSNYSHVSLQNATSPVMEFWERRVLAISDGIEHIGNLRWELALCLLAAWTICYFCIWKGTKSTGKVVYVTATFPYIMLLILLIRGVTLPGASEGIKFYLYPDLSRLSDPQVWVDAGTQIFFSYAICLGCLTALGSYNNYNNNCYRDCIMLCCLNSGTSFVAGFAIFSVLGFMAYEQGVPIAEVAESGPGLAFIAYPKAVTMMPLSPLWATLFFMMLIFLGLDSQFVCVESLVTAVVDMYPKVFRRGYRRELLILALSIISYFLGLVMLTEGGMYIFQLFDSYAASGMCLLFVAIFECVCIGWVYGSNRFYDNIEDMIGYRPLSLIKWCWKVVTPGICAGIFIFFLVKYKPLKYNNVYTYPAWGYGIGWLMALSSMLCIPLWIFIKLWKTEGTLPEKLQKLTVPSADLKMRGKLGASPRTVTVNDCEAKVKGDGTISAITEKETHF
Assay: Inhibition of mouse GAT4 transfected in HEK293 cells assessed as reduction in [3H]-GABA uptake preincubated for 25 mins followed by [3H]-GABA addition and measured after 4 mins by liquid scintillation counting analysis
Assay type: cell-based
Settings: read-out: pIC50 (converted)
Quick reminder: number only, in µM, skip the unit.

Sample answers from the record:
Lookup result for CN(CCOCCN1c2ccccc2Sc2ccccc21)C(CCO)C(=O)NCc1ccc(Cl)cc1 (stereo not given) ; measured IC50: 20.9

Lookup result for CN(CC/C=C/c1ccccc1-c1ccccc1)C(CO)C(=O)NCc1ccccc1 (stereo not given) ; measured IC50: 17.4

Lookup result for CN(CC/C=C/c1ccccc1-c1ccccc1)C(CO)C(=O)NCc1ccc(F)cc1 (stereo not given) ; measured IC50: 30.2

Continuing:
Lookup result for CN(CC/C=C/c1ccccc1-c1ccc(Cl)cc1Cl)C(CCO)C(=O)NCc1ccccc1 (stereo not given) ; measured IC50: 7.41

Lookup result for Cc1ccc(CNC(=O)C(CCO)N(C)CCOCCN2c3ccccc3Sc3ccccc32)cc1 (stereo not given) ; measured IC50: 19.1

----------
Assay: Inhibition of mouse GAT3 transfected in HEK293 cells assessed as reduction in [3H]-GABA uptake preincubated for 25 mins followed by [3H]-GABA addition and measured after 4 mins by liquid scintillation counting analysis
Type: cell-based
Settings: HEK293; read-out: pIC50 (converted)
So basically: is IC50 under 10 µM? Then MET. Not under? Then NOT MET.

Reference set, count: 8
Below 10 µM on IC50? Entry CN(CCOCCN1c2ccccc2Sc2ccccc21)C(CCO)C(=O)NCc1ccccc1 (stereo not given)
MET

Below 10 µM on IC50? Entry CN(CC/C=C/c1ccccc1-c1ccccc1)C(CO)C(=O)NCc1ccccc1Cl (stereo not given)
NOT MET

Below 10 µM on IC50? Entry CN(CCOCCn1c2ccccc2c2ccccc21)C(CCN)C(=O)NCc1ccccc1Cl (stereo not given)
NOT MET

Below 10 µM on IC50? Entry CN(CC/C=C/c1ccccc1-c1ccc(Cl)cc1Cl)C(CCO)C(=O)NCc1ccccc1 (stereo not given)
MET

Below 10 µM on IC50? Entry CN(CCOCCN1c2ccccc2Sc2ccccc21)C(CCN)C(=O)NCc1ccccc1Cl (stereo not given)
MET

Below 10 µM on IC50? Entry CC(O)CC(C(=O)NCc1ccc(F)cc1)N(C)CC/C=C/c1ccccc1-c1ccccc1 (racemic; form 1)
MET

Below 10 µM on IC50? Entry CC(O)CC(C(=O)NCc1ccccc1Cl)N(C)CC/C=C/c1ccccc1-c1ccccc1 (racemic; form 1)
NOT MET

Below 10 µM on IC50? Entry CN(CCOCCN1c2ccccc2Sc2ccccc21)C(CCN)C(=O)NCc1ccc(F)cc1 (stereo not given)
MET

Continuing:
Below 10 µM on IC50? Entry CN(CC/C=C/c1ccccc1-c1ccccc1)C(CO)C(=O)NCc1ccc(F)cc1 (stereo not given)
NOT MET

Below 10 µM on IC50? Entry CN(CCOCCn1c2ccccc2c2ccccc21)C(CCN)C(=O)NCc1ccccc1 (stereo not given)
NOT MET

Below 10 µM on IC50? Entry CN(CCOCCn1c2ccccc2c2ccccc21)C(CCO)C(=O)NCc1ccccc1 (stereo not given)
NOT MET

Below 10 µM on IC50? Entry CN(CCC=C(c1ccccc1)c1ccccc1)C(=O)C1Cc2c([nH]c3ccccc23)CN1 (stereo not given)
MET

Below 10 µM on IC50? Entry Cc1ccc(CNC(=O)C(CCN)N(C)CCOCCN2c3ccccc3Sc3ccccc32)cc1 (stereo not given)
MET

Below 10 µM on IC50? Entry CN(CCOCCN1c2ccccc2Sc2ccccc21)C(CCO)C(=O)NCc1ccc(F)cc1 (stereo not given)
NOT MET

----------
Target: Sodium- and chloride-dependent GABA transporter 1 (Mus musculus)
Assay: Inhibition of mouse GAT1 transfected in HEK293 cells assessed as reduction in [3H]-GABA uptake preincubated for 25 mins followed by [3H]-GABA addition and measured after 4 mins by liquid scintillation counting analysis
Type: cell-based
Conditions: read-out: pIC50 (converted)
So basically: is IC50 under 30 µM? Then true (1). Not under? Then false (0).

Below 30 µM on IC50? Entry CN(CCC=C(c1ccccc1)c1ccccc1)C(=O)C1Cc2c([nH]c3ccccc23)CN1 (stereo not given)
true (1)

Below 30 µM on IC50? Entry CN(CCOCCn1c2ccccc2c2ccccc21)C(CCN)C(=O)NCc1ccccc1Cl (stereo not given)
true (1)

Below 30 µM on IC50? Entry CN(CC/C=C/c1ccccc1-c1ccccc1)C(CO)C(=O)NCc1ccccc1 (stereo not given)
true (1)

Below 30 µM on IC50? Entry CN(CCOCCn1c2ccccc2c2ccccc21)C(CCO)C(=O)NCc1ccccc1 (stereo not given)
false (0)

Below 30 µM on IC50? Entry CN(CCOCCn1c2ccccc2c2ccccc21)C(CCN)C(=O)NCc1ccc(F)cc1 (stereo not given)
false (0)
